// Cross-reactivity lookup, one value per entry
Test system: anti-GEN scFv-AP fusion protein
assay.remarks: direct competitive chemiluminescent enzyme immunoassay
Assay type: binding, murine
experimental.parameters: dcCLEIA; CR=[IC50(gentamicin)/IC50(analyte)]×100%

Reference set (4 entries):
• CNC(C)C1CCC(N)C(OC2C(N)CC(N)C(OC3OCC(C)(O)C(NC)C3O)C2O)O1 (centres unmarked) [Gentamicin] = 100%
• CC1(C)S[C@@H]2[C@H](NC(=O)[C@H](N)c3ccccc3)C(=O)N2[C@H]1C(=O)O [Ampicillin] = <0.10%
• O=C(N[C@H](CO)[C@H](O)c1ccc([N+](=O)[O-])cc1)C(Cl)Cl [Chloramphenicol] = <0.10%
• [H]/N=C(/N)N[C@H]1[C@H](O)[C@@H](O)[C@H](O[C@@H]2O[C@@H](C)[C@](O)(C=O)[C@H]2O[C@@H]2O[C@@H](CO)[C@H](O)[C@@H](O)[C@@H]2NC)[C@@H](N/C(N)=N\[H])[C@@H]1O [Streptomycin] = <0.10%

# query: Cross-reactivity of entry NC[C@H]1O[C@H](O[C@H]2[C@H](O)[C@@H](O[C@H]3O[C@H](CO)[C@@H](O)[C@H](N)[C@H]3O)[C@H](N)C[C@@H]2N)[C@H](O)[C@@H](O)[C@@H]1O [kanamycin]
<0.10%
